Listed here are binders together with their documented Activation of B cells, EC50 (proliferation of CD19+ B cells, Cell titer-Glo).
Biological target: human CD40 on cells (human, UniProt P25942 21-277)
Sequence (P25942 21-277): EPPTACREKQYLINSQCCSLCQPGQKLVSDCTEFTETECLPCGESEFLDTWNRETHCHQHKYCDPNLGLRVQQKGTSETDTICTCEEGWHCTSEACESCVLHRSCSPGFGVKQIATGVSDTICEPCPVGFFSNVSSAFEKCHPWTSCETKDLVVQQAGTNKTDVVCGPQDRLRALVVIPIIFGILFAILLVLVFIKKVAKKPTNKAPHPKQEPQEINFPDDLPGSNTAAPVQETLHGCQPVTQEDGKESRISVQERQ
Experiment: cell-based or functional assay
// units = µg/mL; emit number, no label

Binder	Observed value
Antibody clone H11 (antibody, human IgG1, lambda, V domains shown, also called H11 ANTI-CD40 ANTIBODY) VH: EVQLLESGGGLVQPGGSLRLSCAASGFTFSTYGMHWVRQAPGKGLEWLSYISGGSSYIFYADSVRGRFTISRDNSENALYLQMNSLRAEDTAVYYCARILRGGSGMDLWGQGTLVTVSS VL: QSVLTQPPSASGTPGQRVTISCTGSSSNIGAGYNVYWYQQLPGTAPKLLIYGNINRPSGVPDRFSGSKSGTSASLAISGLRSEDEADYYCAAWDGGLLGLVFGGGTKLTVLG	0.46

Note: attention shifts to another entry.
Problem: Sample Antibody clone C4 (antibody, human IgG1, lambda, V domains shown, Same VL changes as A4; VH carries S63T; also called C4 ANTI-CD40 ANTIBODY) VH: EVQLLESGGGLVQPGGSLRLSCAASGFTFSTYGMHWVRQAPGKGLEWLSYISGGSSYIFYADTVRGRFTISRDNSENALYLQMNSLRAEDTAVYYCARILRGGSGMDLWGQGTLVTVSS VL: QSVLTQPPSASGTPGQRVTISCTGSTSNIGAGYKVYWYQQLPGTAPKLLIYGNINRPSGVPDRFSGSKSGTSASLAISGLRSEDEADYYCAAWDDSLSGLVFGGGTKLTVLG — what was its Activation of B cells, EC50 (proliferation of CD19+ B cells, Cell titer-Glo)?
Result: 0.288

Entry source: patent US20140348836A1
